- Run Description: Rat PK: plasma clearance after PO and IV dosing
- Assay type: in vivo
- Experimental Parameters: rat, plasma; fasted male Wistar Han rats; IV 0.5 mg/kg or 0.05 mg/kg; 20/60/20 DMSO/PEG400/H2O; read-out: Rat plasma clearance (Clp)
# if measured clearance < 10 mL/min/kg: criterion met  # else: criterion not met

Smiles Record	Label Class
Cc1cccc(C2(C(F)(F)F)CC2)c1C(=O)n1nc(-c2ccc(C(=O)O)cc2F)c2ncccc21	criterion not met
O=C(O)c1ccc(-c2nn(C(=O)c3c(C4(C(F)(F)F)CC4)ccc(F)c3Cl)c3cccnc23)c(F)c1	criterion met
O=C(O)c1ccc(-c2nn(C(=O)c3c(Cl)cccc3C3(CF)CC3)c3cccnc23)c(F)c1	criterion not met
O=C(O)c1ccc(-c2nn(C(=O)c3c(Cl)cccc3C3(C(F)(F)F)CC3)c3cccnc23)c(F)c1	criterion met

Now look at this entry.
Task: Could you please tell me whether clearance recorded for O=C(O)c1ccc(-c2cn(C(=O)c3c(Cl)cccc3C3(C(F)(F)F)CC3)c3cccnc23)c(F)c1 is less than 10 mL/min/kg?
Result: criterion met

Where do the numbers come from? From patent US10584121B2.
